biological target: hGLP-1R (Homo sapiens, UniProt P43220); test: Functional cAMP activation in the presence of 0.1% casein (no HSA); type: cell-based; conditions: in the presence of 0.1% casein (no HSA); geometric mean; read-out: Relative cAMP EC50, hGLP-1R;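 further: intracellular cAMP rise after 30 min at 37 °C read by HTRF, normalized between buffer only (0%) and maximal control ligand (100%), four-parameter variable-slope fit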
Sequence (P43220 24-463): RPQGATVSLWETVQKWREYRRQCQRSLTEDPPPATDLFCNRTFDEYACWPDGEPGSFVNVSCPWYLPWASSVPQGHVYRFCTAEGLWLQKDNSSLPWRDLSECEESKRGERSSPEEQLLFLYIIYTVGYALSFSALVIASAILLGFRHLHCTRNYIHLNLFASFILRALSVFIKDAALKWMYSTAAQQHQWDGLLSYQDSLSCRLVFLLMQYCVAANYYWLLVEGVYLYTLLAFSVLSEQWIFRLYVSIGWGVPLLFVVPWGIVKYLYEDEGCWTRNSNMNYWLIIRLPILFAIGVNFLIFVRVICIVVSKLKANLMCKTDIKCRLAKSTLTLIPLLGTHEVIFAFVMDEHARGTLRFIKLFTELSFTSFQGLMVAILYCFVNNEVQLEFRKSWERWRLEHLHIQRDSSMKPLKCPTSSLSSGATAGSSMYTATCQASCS
Starred links: 1 amine or outer side, 2 acyl side, 3 side chain; linkers in the order of their positions; H or OH if unused. Non-standard residues stand in square brackets, D forms with d. Groups on a side chain read outwards from the residue. No end group written: not given here. *: point of attachment. C20 diacid = O=C(O)CCCCCCCCCCCCCCCCCCC(=O)*; C18 diacid = O=C(O)CCCCCCCCCCCCCCCCC(=O)*; γGlu = O=C(O)[C@H](CCC(=O)[*:2])N[*:1]; αMe4Pal = C[C@](N)(Cc1ccncc1)C(=O)O; αMeY = C[C@](N)(Cc1ccc(O)cc1)C(=O)O; 4Pal = N[C@@H](Cc1ccncc1)C(=O)O; αMeL = CC(C)C[C@](C)(N)C(=O)O; Orn = NCCC[C@H](N)C(=O)O; AEEA = NCCOCCOCC(=O)O; Aib = CC(C)(N)C(=O)O
Each entry below lists one item and its recorded pEC50 value.
# log scale: pEC50 equals minus log10 of the concentration in mol/L

Would you please look over these solved cases?
substance="H-Y[Aib]QGTFTSDFS[Orn][αMeL]LDKK([AEEA-AEEA-γGlu-C18 diacid])AQ[Aib]AFIEWLLEGGHSSGAPPPGGE-NH2 [Example 271]" assay_target="hGLP-1R (Homo sapiens, UniProt P43220)" value_measured=8.30
substance="H-Y[Aib]QGTFTSD[4Pal]SR[αMeL]LDKK([AEEA-γGlu-C18 diacid])AQ[αMe4Pal]AFIEYLIE[Aib]GPSSGAPPPSGS-NH2 [Example 809]" assay_target="hGLP-1R (Homo sapiens, UniProt P43220)" value_measured=8.73
substance="H-Y[Aib]QGTFTSDFS[Orn][αMeL]LDKK([AEEA-γGlu-C18 diacid])AQ[Aib]AFIEWLLEGGSSSGAPPPGGT-NH2 [Example 272]" assay_target="hGLP-1R (Homo sapiens, UniProt P43220)" value_measured=8.58
substance="H-Y[Aib]QGTFTSDFS[Orn][αMeL]LDKK([AEEA-AEEA-γGlu-C18 diacid])AQ[Aib]AFIEYLLE[Aib]GPSSGAPPPSGT-NH2 [Example 165]" assay_target="hGLP-1R (Homo sapiens, UniProt P43220)" value_measured=8.19
substance="Y[Aib]QGTFTSD[4Pal]SQ[αMeL]LD[Orn]K([dE-γGlu-C18 diacid])AQ[αMe4Pal]AFIQ[αMeY]LLEGGPSSGAPPPSGSEEE-NH2 [Example 1083]" assay_target="hGLP-1R (Homo sapiens, UniProt P43220)" value_measured=8.11

pEC50 measured on H-Y[Aib]QGTFTSD[4Pal]SQ[αMeL]LDKK([AEEA-γGlu-C18 diacid])AQ[αMe4Pal]AFIEYLIE[Aib]GPSSGAPPPSGE-NH2 [Example 881] = 8.54

Consider H-Y[Aib]QGTFTSDYSK[αMeL]LDKK([AEEA-γGlu-C20 diacid])AQQAFIEYLIAGGPSSGEPPPSGD-NH2 [Example 337] . Its measured pEC50 is 9.16

Field pEC50 (entry H-Y[Aib]QGTFTSDFS[Orn][αMeL]LDKK([AEEA-γGlu-C18 diacid])AQ[Aib]AFIEYLLEGGPSSGAPPPGGSE-NH2 [Example 65] ) reads 8.38

Summary for this substance, H-Y[Aib]QGTFTSD[4Pal]S[Orn][αMeL]LD[Orn]K([γGlu-γGlu-C18 diacid])AQ[αMe4Pal]AFIEYLIAGGPSSGEPPPSGE-NH2 [Example 983] : pEC50 is 8.63

The substance listed as Y[Aib]QGTFTSD[4Pal]SQ[αMeL]LDKK([AEEA-γGlu-C18 diacid])AQ[Aib]AFIE[αMeY]LIEGGPSSGAPPPSGS-NH2 [Example 838] has a reported pEC50 of 9.42

Recorded pEC50 (substance H-Y[Aib]QGTFTSD[4Pal]SR[αMeL]LDKK([AEEA-γGlu-C18 diacid])AQ[Aib]AFIEYLLE[Aib]GESSGAPPPSGS-NH2 [Example 132] ): 8.24

Value of measured pEC50 for the entry H-Y[Aib]QGTFTSD[4Pal]SQ[αMeL]LDKK([AEEA-γGlu-C18 diacid])AQ[Aib]AFIE[αMeY]LIEGGPSSGAPPPEGS-NH2 [Example 853] : 9.29

----------
Listing: pEC50 of selected substances
target: hGLP-1R (Homo sapiens); experiment: Functional cAMP activation in the presence of 0.1% casein (no HSA); assay type: cell-based; conditions: in the presence of 0.1% casein (no HSA); geometric mean; read-out: Relative cAMP EC50, hGLP-1R
Starred links: 1 amine or outer side, 2 acyl side, 3 side chain; linkers in the order of their positions; H or OH if unused. Non-standard residues stand in square brackets, D forms with d. Groups on a side chain read outwards from the residue. No end group written: not given here. *: point of attachment. C18 diacid = O=C(O)CCCCCCCCCCCCCCCCC(=O)*; γGlu = O=C(O)[C@H](CCC(=O)[*:2])N[*:1]; αMe4Pal = C[C@](N)(Cc1ccncc1)C(=O)O; αMeY = C[C@](N)(Cc1ccc(O)cc1)C(=O)O; 4Pal = N[C@@H](Cc1ccncc1)C(=O)O; αMeL = CC(C)C[C@](C)(N)C(=O)O; αMeS = C[C@](N)(CO)C(=O)O; Orn = NCCC[C@H](N)C(=O)O; AEEA = NCCOCCOCC(=O)O; Aib = CC(C)(N)C(=O)O
Units for pEC50: none; it is -log10 of a concentration expressed in mol/L.

As a guide, the following entries are already answered.
substance="H-Y[Aib]QGTFTSD[4Pal]SR[αMeL]LDKK([AEEA-γGlu-C18 diacid])AQ[Aib]AFIEYLIE[Aib]SPSSGAPPPSGS-NH2 [Example 807]" assay_target="hGLP-1R (Homo sapiens)" value_measured=8.76
substance="H-Y[Aib]QGTFTSDFS[Orn][αMeL]LDKK([AEEA-γGlu-γGlu-C18 diacid])AQ[Aib]AFIEYLLE[Aib]GPSSGAPPPSGT-NH2 [Example 278]" assay_target="hGLP-1R (Homo sapiens)" value_measured=8.39
substance="Y[Aib]QGTFTSD[4Pal]SQ[αMeL]LDKK([dE-γGlu-dE-C18 diacid])AQ[αMe4Pal]AFIEYLIE[Aib]GPSSGAPPPSGSEE-NH2 [Example 931]" assay_target="hGLP-1R (Homo sapiens)" value_measured=7.95
substance="H-Y[Aib]QGTFTSD[4Pal][αMeS]Q[αMeL]LD[Orn]K([dE-γGlu-C18 diacid])AQ[αMe4Pal]QFIQ[αMeY]LLE[Aib]GPSSGAPPPSGGGE-NH2 [Example 1138]" assay_target="hGLP-1R (Homo sapiens)" value_measured=8.71
substance="H-Y[Aib]QGTFTSDFS[Orn][αMeL]LDKK([AEEA-AEEA-γGlu-C18 diacid])AQ[Aib]AFIEYLLE[Aib]GPSSGAPPPSGS-NH2 [Example 75]" assay_target="hGLP-1R (Homo sapiens)" value_measured=8.36

Now for the substance whose pEC50 we want.
Lab book: pEC50 of H-Y[Aib]QGTFTSDFS[Orn][αMeL]LDKK([AEEA-AEEA-γGlu-C18 diacid])AQ[Aib]AFIEYLLE[Aib]GPSSGAPPPEGS-NH2 [Example 194] noted as 8.33
